# reported melting point; entries follow
QUANTITY_KIND: melting point

- COMPOUND: "CC(C)c1ccc2c(c1)CCC1C(C)(C(=O)OCC(=O)NN=Cc3ccccc3[N+](=O)[O-])CCCC21C (stereo not shown) [4h]"
  RESULT_VALUE: "94.9 to 96.7 °C"
- COMPOUND: "CC(C)c1ccc2c(c1)CCC1C(C)(C(=O)OCC(=O)NN=Cc3ccc([N+](=O)[O-])cc3)CCCC21C (stereo not shown) [4j]"
  RESULT_VALUE: "177.2 to 179.8 °C"
- COMPOUND: "CC(C)c1ccc2c(c1)CCC1C(C)(C(=O)OCC(=O)NN=Cc3ccc(F)cc3)CCCC21C (stereo not shown) [4s]"
  RESULT_VALUE: "169.2 to 170.5 °C"
- COMPOUND: "CC(C)c1ccc2c(c1)CCC1C(C)(C(=O)OCC(=O)NN=Cc3cccc(Br)c3)CCCC21C (stereo not shown) [4l]"
  RESULT_VALUE: "178.3 to 179.8 °C"
- COMPOUND: "CC(C)c1ccc2c(c1)CCC1C(C)(C(=O)OCC(=O)NN=Cc3cccc(F)c3F)CCCC21C (stereo not shown) [4t]"
  RESULT_VALUE: "150.2 to 153.5 °C"
- COMPOUND: "CC(C)c1ccc2c(c1)CCC1C(C)(C(=O)OCC(=O)NN=Cc3ccc(Br)cc3)CCCC21C (stereo not shown) [4m]"
  RESULT_VALUE: "188.1 to 188.6 °C"
- COMPOUND: "COc1ccc(C=NNC(=O)COC(=O)C2(C)CCCC3(C)c4ccc(C(C)C)cc4CCC23)cc1 (stereo not shown) [4p]"
  RESULT_VALUE: "174.8 to 175.5 °C"
- COMPOUND: "Cc1ccc(C=NNC(=O)COC(=O)C2(C)CCCC3(C)c4ccc(C(C)C)cc4CCC23)cc1 (stereo not shown) [4b]"
  RESULT_VALUE: "170 to 172.1 °C"
- COMPOUND: "CC(C)c1ccc2c(c1)CCC1C(C)(C(=O)OCC(=O)NN=Cc3cccc(F)c3)CCCC21C (stereo not shown) [4r]"
  RESULT_VALUE: "166 to 167.3 °C"
- COMPOUND: "CC(C)c1ccc2c(c1)CCC1C(C)(C(=O)OCC(=O)NN=C/C=C/c3ccccc3)CCCC21C (stereo not shown) [4c]"
  RESULT_VALUE: "185.7 to 187.3 °C"
- COMPOUND: "CC(C)c1ccc2c(c1)CCC1C(C)(C(=O)OCC(=O)NN=Cc3ccc(N(C)C)cc3)CCCC21C (stereo not shown) [4e]"
  RESULT_VALUE: "163.4 to 164.7 °C"
- COMPOUND: "CC(C)c1ccc2c(c1)CCC1C(C)(C(=O)OCC(=O)NN=Cc3cccc([N+](=O)[O-])c3)CCCC21C (stereo not shown) [4i]"
  RESULT_VALUE: "99.6 to 101.9 °C"
- COMPOUND: "CC(C)c1ccc2c(c1)CCC1C(C)(C(=O)OCC(=O)NN=Cc3ccccc3Br)CCCC21C (stereo not shown) [4k]"
  RESULT_VALUE: "184.9 to 185.7 °C"
- COMPOUND: "CC(C)c1ccc2c(c1)CCC1C(C)(C(=O)OCC(=O)NN=Cc3c(F)cccc3F)CCCC21C (stereo not shown) [4v]"
  RESULT_VALUE: "107.3 to 110 °C"
- COMPOUND: "CC(C)c1ccc2c(c1)CCC1C(C)(C(=O)OCC(=O)NN=Cc3ccccc3F)CCCC21C (stereo not shown) [4q]"
  RESULT_VALUE: "130.2 to 130.5 °C"
- COMPOUND: "CC(C)c1ccc2c(c1)CCC1C(C)(C(=O)OCC(=O)NN=Cc3cc(F)cc(F)c3)CCCC21C (stereo not shown) [4w]"
  RESULT_VALUE: "182.6 to 186.6 °C"
- COMPOUND: "CC(C)c1ccc2c(c1)CCC1C(C)(C(=O)OCC(=O)NN=Cc3ccc(F)cc3F)CCCC21C (stereo not shown) [4u]"
  RESULT_VALUE: "181.9 to 184.5 °C"
- COMPOUND: "COc1cc(C=NNC(=O)COC(=O)C2(C)CCCC3(C)c4ccc(C(C)C)cc4CCC23)ccc1O (stereo not shown) [4d]"
  RESULT_VALUE: "117.6 to 119 °C"
- COMPOUND: "CC(C)c1ccc2c(c1)CCC1C(C)(C(=O)OCC(=O)NN=Cc3ccco3)CCCC21C (stereo not shown) [4f]"
  RESULT_VALUE: "125.7 to 126.4 °C"
